Test system: Key Grass and Sedge Weeds as well as Grass Crops
PROTOCOL_DESCRIPTION: Post-Emergent Test II (Table 6)
Assay type: in vivo
SETTINGS: post-emergence, 336 h, DIGSA: crabgrass (Digitaria sanguinalis), 70 g ai/ha, 14 days after application, read-out: Visual Growth Reduction (%) 14 Days After Application DIGSA
Reported pest or weed control at 70 g/ha values follow for various compounds

Here's what some known entries look like.
COC(=O)c1nc(-c2ccc(C(F)(F)F)nc2)c(Cl)c(N)c1Cl [Compound 83] = 60 to 74%
Nc1c(F)c(-c2ccc(C3CC3)nc2)nc(C(=O)O)c1Cl [Compound 36] = 60 to 74%
COC(=O)c1nc(-c2ccc(C)nc2F)c(F)c(N)c1Cl [Compound 76] = 75 to 84%
COC(=O)c1nc(-c2ccc(OC)nc2)c(F)c(N)c1Cl [Compound 62] = 75 to 84%
COC(=O)c1nc(-c2ccc(I)c(F)c2C)cc(N)c1Cl [Compound 25] = 0 to 29%
Nc1cc(-c2ccc(Cl)c(F)c2CO)nc(C(=O)O)c1Cl [Compound 11] = 0 to 29%
COC(=O)c1nc(-c2ccc(C(F)(F)F)nc2F)cc(N)c1Cl [Compound 74] = 0 to 29%
Nc1c(F)c(-c2ccc(Cl)c(Cl)c2Cl)nc(C(=O)O)c1Cl [Compound 10] = 0 to 29%

Let's switch to this compound now.
stdin: GET /values?readout=pest or weed control at 70 g/ha&item= Cc1c(-c2cc(N)c(Cl)c(C(=O)O)n2)ccc(Cl)c1Cl [Compound 28]
stdout: 0 to 29%

----------
Reported pest or weed control at 35 g/ha values follow for various compounds
Tested on: TRZSS
PROTOCOL_DESCRIPTION: Post-Emergent Test III (Wheat and Barley)
Format: in vivo
SETTINGS: Triticum aestivum, post-emergence, 504 h; 35 g ai/ha, postemergence; read-out: Visual Growth Reduction (%) 21 Days After Application, TRZSS

Nc1c(F)c(-c2ccc(C(F)(F)F)nc2)nc(C(=O)O)c1Cl = 75 to 84%
Cc1c(-c2ccc(C(F)(F)F)nc2)nc(C(=O)O)c(Cl)c1N = 60 to 74%
COC(=O)c1nc(-c2ccc(Cl)c(F)c2C)cc(N)c1Cl = 60 to 74%

stdin: Tell me reported pest or weed control at 35 g/ha for Nc1c(Cl)c(C(=O)O)nc(-c2ccc(C(F)(F)F)nc2)c1Cl , tested with TRZSS.
stdout: 75 to 84%

----------
Test system: SETVI (green foxtail)
PROTOCOL_DESCRIPTION: Post-Emergent Test III (Wheat and Barley)
Type: in vivo, Setaria viridis
SETTINGS: effective dose for growth reduction of 80 percent, probit analysis
PROPERTY: GR80, SETVI (g ai/ha)
Just the number in g ai/ha, nothing appended.

COC(=O)c1nc(-c2ccc(C(F)(F)F)nc2)c(Cl)c(N)c1Cl = 139

Let's switch to this molecule now.
stdin: GET /values?readout=GR80, SETVI&item= Nc1c(F)c(-c2ccc(OC(F)F)nc2)nc(C(=O)O)c1Cl
stdout: 112

----------
Tested on: Key Broadleaf Weed and Crop Species
PROTOCOL_DESCRIPTION: Post-Emergent Test II (Table 5)
Format: in vivo
SETTINGS: Helianthus annuus, post-emergence, 336 h, HELAN: sunflower (Helianthus annuus), application rate 70 (kg ai/ha; footnote: g ai/ha), read-out: Visual Growth Reduction (%) 14 Days After Application HELAN
PROPERTY: pest or weed control at 70 g/ha

Here's what some known entries look like.
COc1nc(C(F)(F)F)ccc1-c1cc(N)c(Cl)c(C(=O)O)n1 [Compound 65] = 45 to 59%
Nc1c(F)c(-c2ccc(Cl)c(Cl)c2Cl)nc(C(=O)O)c1Cl [Compound 10] = 0 to 29%
COC(=O)c1nc(-c2ccc(Br)nc2)c(F)c(N)c1Cl [Compound 22] = 85 to 94%

stdin: GET /values?readout=pest or weed control at 70 g/ha&item= C=Cc1c(-c2cc(N)c(Cl)c(C(=O)OC)n2)ccc(Cl)c1F [Compound 79]
stdout: 85 to 94%

stdin: GET /values?readout=pest or weed control at 70 g/ha&item= COC(=O)c1nc(-c2ccc(C(F)(F)F)nc2)nc(N)c1OC [Compound 43]
stdout: 0 to 29%

----------
Tested on: ECHSS: including barnyardgrass, (Echinochloa crus-galli), junglerice, (Echinochloa colonum)
PROTOCOL_DESCRIPTION: Postemergence Herbicidal Activity in Direct Seeded Rice
Type: in vivo
SETTINGS: 70 g ai/ha, postemergence, direct seeded rice
PROPERTY: Visual Growth Reduction (%) 21 Days After Application, ECHSS

COC(=O)c1nc(-c2ccc(C(F)(F)F)nc2)c(Cl)c(N)c1Cl [Compound 83] = A (95-100)
COC(=O)c1nc(-c2ccc(C(F)(F)F)nc2)c(F)c(N)c1Cl [Compound 59] = B (85-94)
COC(=O)c1nc(-c2ccc(Cl)nc2F)c(F)c(N)c1Cl [Compound 45] = B (85-94)
COC(=O)c1nc(-c2ccc(C(F)(F)F)nc2)c(C)c(N)c1Cl [Compound 32] = A (95-100)

Let's switch to this compound now.
stdin: GET /values?readout=Visual Growth Reduction (%) 21 Days After Application, ECHSS&item= Nc1c(Cl)c(C(=O)O)nc(-c2ccc(C(F)(F)F)nc2)c1Cl [Compound 33]
stdout: A (95-100)

----------
Test system: Key Broadleaf Weed and Crop Species
PROTOCOL_DESCRIPTION: Post-Emergent Test II (Table 5)
Format: in vivo
SETTINGS: Euphorbia heterophylla, post-emergence, 336 h, EPHHL: wild poinsettia (Euphorbia heterophylla), application rate 140 (kg ai/ha; footnote: g ai/ha), read-out: Visual Growth Reduction (%) 14 Days After Application EPHHL
PROPERTY: pest or weed control at 140 g/ha

stdin: GET /values?readout=pest or weed control at 140 g/ha&item= C#Cc1c(-c2cc(N)c(Cl)c(C(=O)OC)n2)ccc(Cl)c1F [Compound 75]
stdout: 0 to 29%

----------
Reported pest or weed control at 70 g/ha values follow for various molecules
System: Key Grass and Sedge Weeds as well as Grass Crops
PROTOCOL_DESCRIPTION: Post-Emergent Test II (Table 6)
Format: in vivo
SETTINGS: post-emergence, 336 h, ZEAMX: maize, corn (Zea mays), 70 g ai/ha, 14 days after application, read-out: Visual Growth Reduction (%) 14 Days After Application ZEAMX

stdin: GET /values?readout=pest or weed control at 70 g/ha&item= Nc1c(F)c(-c2ccc(Br)nc2)nc(C(=O)O)c1Cl
stdout: 85 to 94%

stdin: GET /values?readout=pest or weed control at 70 g/ha&item= COC(=O)c1nc(-c2ccc(C(F)(F)F)nc2)c(C)c(N)c1Cl
stdout: 60 to 74%

stdin: GET /values?readout=pest or weed control at 70 g/ha&item= Cc1c(F)c(Cl)cc(F)c1-c1cc(N)c(Cl)c(C(=O)O)n1
stdout: 0 to 29%

stdin: GET /values?readout=pest or weed control at 70 g/ha&item= COC(=O)c1nc(-c2ccc(Cl)c(F)c2C)nc(N)c1OC
stdout: 0 to 29%

stdin: GET /values?readout=pest or weed control at 70 g/ha&item= CCc1c(-c2cc(N)c(Cl)c(C(=O)O)n2)ccc(Cl)c1F
stdout: 0 to 29%

stdin: GET /values?readout=pest or weed control at 70 g/ha&item= COc1ccc(-c2nc(C(=O)O)c(Cl)c(N)c2F)cn1
stdout: 95 to 100%

stdin: GET /values?readout=pest or weed control at 70 g/ha&item= COC(=O)c1nc(-c2ccc(C3CC3)nc2)c(F)c(N)c1Cl
stdout: 95 to 100%

----------
Test system: SETVI (green foxtail)
PROTOCOL_DESCRIPTION: Post-Emergent Test III (Wheat and Barley)
Type: in vivo, Setaria viridis
SETTINGS: effective dose for growth reduction of 80 percent, probit analysis
PROPERTY: GR80, SETVI (g ai/ha)
Just the number in g ai/ha, nothing appended.

Here's what some known entries look like.
Cc1c(-c2ccc(C(F)(F)F)nc2)nc(C(=O)O)c(Cl)c1N = 47
COC(=O)c1nc(-c2ccc(C3CC3)nc2)c(F)c(N)c1Cl = 57

Let's switch to this compound now.
stdin: Tell me reported GR80, SETVI for COC(=O)c1nc(-c2ccc(C(F)(F)F)nc2)c(F)c(N)c1Cl , tested with SETVI (green foxtail).
stdout: 61

----------
System: Key Grass and Sedge Weeds as well as Grass Crops
PROTOCOL_DESCRIPTION: Post-Emergent Test II (Table 6)
Format: in vivo
SETTINGS: post-emergence, 336 h, ZEAMX: maize, corn (Zea mays), 70 g ai/ha, 14 days after application, read-out: Visual Growth Reduction (%) 14 Days After Application ZEAMX
PROPERTY: pest or weed control at 70 g/ha

Here's what some known entries look like.
Nc1c(F)c(-c2ccc(Cl)c(Cl)c2Cl)nc(C(=O)O)c1Cl [Compound 10] = 60 to 74%
Nc1c(F)c(-c2ccc(C3CC3)nc2)nc(C(=O)O)c1Cl [Compound 36] = 95 to 100%
COC(=O)c1nc(-c2ccc(Cl)c(F)c2C)nc(N)c1Cl [Compound 31] = 0 to 29%
Cc1c(-c2cc(N)c(Cl)c(C(=O)O)n2)ccc(C(F)(F)F)c1F [Compound 61] = 0 to 29%
Cc1c(-c2cc(N)c(Cl)c(C(=O)O)n2)ccc(Cl)c1Cl [Compound 28] = 30 to 44%

stdin: GET /values?readout=pest or weed control at 70 g/ha&item= COC(=O)c1nc(-c2ccc(Cl)c(F)c2CF)cc(N)c1Cl [Compound 78]
stdout: 0 to 29%
